TESTED TARGET: GABARAP (residues 1-117 of human GABARAP) (human, UniProt O95166 1-117)
Sequence (O95166 whole entry, the tested form may be a part): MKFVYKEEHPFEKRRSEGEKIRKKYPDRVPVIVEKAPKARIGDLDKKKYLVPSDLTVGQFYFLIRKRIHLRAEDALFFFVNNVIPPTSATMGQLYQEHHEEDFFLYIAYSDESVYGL
TEST SUMMARY: ITC
CONDITION DESCRIPTION: both partners purified
PARAMETER MEASURED: pKd
In plain terms, pKd is the concentration in mol/L turned into minus its base-10 logarithm.

Field pKd (entry GRNNWIPVIPPIPDVEMESEEE [NSs3 (residues 234-255 of RVFV NSs)] ) reads 4.80
